System: PA1b binding site
Experiment: Ligand binding to the PA1b-binding site using 125I-PA1b
Settings: 125I-PA1b ligand binding
Bridge positions count the residues as written; N and C are the ends. Ends that are not written are not given here.
Reported property: binding to the PA1b-binding site (in words)

{"columns": ["Substance", "Value observed"],
 "data": [
  ["GQCARVGMRCSRALPNPCGDIVTCRCVHLHLVGSTCIDYTGDGL (disulfide 3-24, 10-26, 18-36) [GL44]", "did not present binding"],
  ["DEC-W-G-PCSVLQTPP-CPLSK CYCIPLFLVVGY---CSHASS (bicyclic or more) [DS37, synthetic folded Medicago truncatula A1b peptide, cluster 1, non-canonical CYC motif]", "did not present binding"]
]}

###

Below, each entry is listed alongside its reported Ki.
Biological target: PA1b binding site
Experiment: Ligand binding to the PA1b-binding site using 125I-PA1b
Conditions: affinity to the PA1b binding site; ligand binding using 125I-PA1b, according to [12]; '-' = no binding in the range assayed
Procedure: The affinity of synthetic peptides for the PA1b-binding site was determined by ligand binding using ^125I-toxin [12].
Bridge positions count the residues as written; N and C are the ends. Ends that are not written are not given here.
Reported property: Ki

{"columns": ["Query sequence", "Value observed"],
 "data": [
  ["ASCPNVGAVCSPFETKPCGNVKDCRCLPWGLFFGTCINPTG (disulfide 3-24, 10-26, 18-36 (inferred)) [AG41]", "0.0013 µM"],
  ["EFCSSVGSFCSPFNTNPCGYLGNCRCVPYYLYGGTCENPFG (disulfide 3-24, 10-26, 18-36 (inferred)) [EG41]", "0.0728 µM"],
  ["GQCARVGMRCSRALPNPCGDIVTCRCVHLHLVGSTCIDYTGDGL (disulfide 3-24, 10-26, 18-36) [GL44]", "> 0.694 µM"]
]}
